Reference for the values: ChEMBL document CHEMBL4177766

Listing of recorded Ratio Ki by entry.
test_protocol: Selectivity ratio of Ki for full length recombinant human PDE4B1 to Ki for full length Trypanosoma brucei PDEB1

- molecule: "COc1ccc(C2=NN(C3CCCCCC3)C(=O)[C@@H]3CC=CC[C@H]23)cc1-c1ccc(C(=O)N2CNC(=O)C2)cc1 (relative stereo)"
  Ratio Ki: 1
- molecule: "COc1ccc(C2=NN(C3CCCCCC3)C(=O)[C@@H]3CC=CC[C@H]23)cc1-c1ccc(C(=O)O)cc1 (relative stereo)"
  Ratio Ki: 5
- molecule: "COc1ccc(C2=NN(C3CCCCCC3)C(=O)[C@@H]3CC=CC[C@H]23)cc1-c1ccc(C(=O)N2CC(=O)N(C)C2)cc1 (relative stereo)"
  Ratio Ki: 1.4
- molecule: "COCCNC(=O)c1ccc(-c2cc(C3=NN(C4CCCCCC4)C(=O)[C@@H]4CC=CC[C@H]34)ccc2OC)cc1 (relative stereo)"
  Ratio Ki: 7
- molecule: "COc1ccc(C2=NN(C(C)C)C(=O)[C@@H]3CC=CC[C@H]23)cc1-c1ccc(C(=O)N2CC[C@@H](O)C2)cc1 (racemic)"
  Ratio Ki: 15
- molecule: "COc1ccc(C2=NN(C3CCCCCC3)C(=O)[C@@H]3CC=CC[C@H]23)cc1-c1ccc(C(=O)N2CC[C@@H](O)C2)cc1 (racemic)"
  Ratio Ki: 9
- molecule: "COc1ccc(C2=NN(C3CCCCCC3)C(=O)[C@@H]3CC=CC[C@H]23)cc1-c1ccc(C(=O)NCC(=O)N(C)C)cc1 (relative stereo)"
  Ratio Ki: 4
- molecule: "COc1ccc(C2=NN(C3CCCCCC3)C(=O)[C@@H]3CC=CC[C@H]23)cc1-c1ccc(C(=O)N2CCC(=O)C2)cc1 (relative stereo)"
  Ratio Ki: 3
- molecule: "COc1ccc(C2=NN(C3CCCCCC3)C(=O)[C@@H]3CC=CC[C@H]23)cc1-c1ccc(C(=O)NCCC(N)=O)cc1 (relative stereo)"
  Ratio Ki: 2
- molecule: "COc1ccc(C2=NN(C3CCCCCC3)C(=O)[C@@H]3CC=CC[C@H]23)cc1-c1ccc(C(=O)N2CCC[C@@H]2C(N)=O)cc1 (racemic)"
  Ratio Ki: 13
- molecule: "CNC(=O)CNC(=O)c1ccc(-c2cc(C3=NN(C4CCCCCC4)C(=O)[C@@H]4CC=CC[C@H]34)ccc2OC)cc1 (relative stereo)"
  Ratio Ki: 6
- molecule: "COc1ccc(C2=NN(C3CCCCCC3)C(=O)[C@@H]3CC=CC[C@H]23)cc1-c1ccc(C(=O)NCCNC(C)=O)cc1 (relative stereo)"
  Ratio Ki: 5
- molecule: "COc1ccc(C2=NN(C3CCCCCC3)C(=O)[C@@H]3CC=CC[C@H]23)cc1-c1ccc(C(N)=O)cc1 (relative stereo)"
  Ratio Ki: 1

----------
test_protocol: Selectivity ratio of Ki for full length recombinant human PDE4B1 to Ki for full length Trypanosoma brucei PDEB1

- molecule: "COc1ccc(C2=NN(C3CCCCCC3)C(=O)[C@@H]3CC=CC[C@H]23)cc1-c1ccc(C(=O)NCC(=O)NC(C)C)cc1 (relative stereo)"
  Ratio Ki: 4
- molecule: "COc1ccc(C2=NN(C3CCCCCC3)C(=O)[C@@H]3CC=CC[C@H]23)cc1-c1ccc(C#N)cc1 (relative stereo)"
  Ratio Ki: 0.1
- molecule: "COCCNC(=O)CNC(=O)c1ccc(-c2cc(C3=NN(C4CCCCCC4)C(=O)[C@@H]4CC=CC[C@H]34)ccc2OC)cc1 (relative stereo)"
  Ratio Ki: 8
- molecule: "COc1ccc(C2=NN(C3CCCCCC3)C(=O)[C@@H]3CC=CC[C@H]23)cc1-c1ccc(C(=O)NCC(=O)NCCO)cc1 (relative stereo)"
  Ratio Ki: 7
- molecule: "COc1ccc(C2=NN(C3CCCCCC3)C(=O)[C@@H]3CC=CC[C@H]23)cc1-c1ccc(C(=O)N(C)CC(N)=O)cc1 (relative stereo)"
  Ratio Ki: 7
- molecule: "COc1ccc(C2=NN(C3CCCCCC3)C(=O)[C@@H]3CC=CC[C@H]23)cc1-c1cccc(C(=O)O)c1 (relative stereo)"
  Ratio Ki: 2
- molecule: "COc1ccc(C2=NN(C(C)C)C(=O)[C@@H]3CC=CC[C@H]23)cc1-c1ccc(C(=O)N2CCC[C@@H]2C(N)=O)cc1 (racemic)"
  Ratio Ki: 18
